Experiment: Tissue distribution
Details: both, SD, rat, in vivo, iv, 6 μmol/kg, tissue concentration, spleen, 15 min, SD rats 6 μmol/kg iv, dosed compound
Experimental: Male and female SD rats (200–220 g) received intravenous injections of CTX or CTX-DTPA (6 μmol/kg). CTX was dissolved in 2.5% Tween 80/2.5% EtOH/saline, while CTX-DTPA used saline alone. Blood samples were collected at 5 min to 24 h post-dose. […] Plasma and tissue samples were processed by liquid-liquid extraction with n-butanol and analyzed via LC-MS/MS (Agilent Poroshell 120 EC-C18 column; 0.05% formic acid/acetonitrile gradient). […]
readout name: concentration at 15 min (ng/g)
Please state the figure in ng/g; there is no need to write the unit.

Input line: Entry COC1C(=O)C2(C)C(OC)CC3OCC3(OC(C)=O)C2C(OC(=O)c2ccccc2)C2(O)CC(OC(=O)C(OC(=O)CN(CCN(CCN(CC(=O)O)CC(=O)O)CC(=O)O)CC(=O)O)C(NC(=O)OC(C)(C)C)c3ccccc3)C(C)=C1C2(C)C (stereo not shown) : reported concentration at 15 min = ?
Output line: 0.39

###

assay: Tissue distribution; conditions: both, SD, rat, kidney, iv, 6 μmol/kg
readout name: concentration at 12 h (ng/g)
Please state the figure in ng/g; there is no need to write the unit.

Input line: Entry CO[C@H]1C(=O)[C@]2(C)[C@@H](OC)C[C@H]3OC[C@@]3(OC(C)=O)[C@H]2[C@H](OC(=O)c2ccccc2)[C@]2(O)C[C@H](OC(=O)[C@H](O)[C@@H](NC(=O)OC(C)(C)C)c3ccccc3)C(C)=C1C2(C)C : reported concentration at 12 h = ?
Output line: 218

###

assay: Tissue distribution; settings: both, SD, rat, thymus, iv, 6 μmol/kg
readout name: concentration at 12 h (ng/g)
Please state the figure in ng/g; there is no need to write the unit.

Input line: Entry CO[C@H]1C(=O)[C@]2(C)[C@@H](OC)C[C@H]3OC[C@@]3(OC(C)=O)[C@H]2[C@H](OC(=O)c2ccccc2)[C@]2(O)C[C@H](OC(=O)[C@H](O)[C@@H](NC(=O)OC(C)(C)C)c3ccccc3)C(C)=C1C2(C)C : reported concentration at 12 h = ?
Output line: 67.2

###

test: Tissue distribution; settings: both, SD, rat, liver, iv, 6 μmol/kg
readout name: concentration at 2 h (ng/g)
Please state the figure in ng/g; there is no need to write the unit.

Input line: Entry CO[C@H]1C(=O)[C@]2(C)[C@@H](OC)C[C@H]3OC[C@@]3(OC(C)=O)[C@H]2[C@H](OC(=O)c2ccccc2)[C@]2(O)C[C@H](OC(=O)[C@H](O)[C@@H](NC(=O)OC(C)(C)C)c3ccccc3)C(C)=C1C2(C)C : reported concentration at 2 h = ?
Output line: 78.7

###

test: Tissue distribution; details: both, SD, rat, spleen, iv, 6 μmol/kg
readout name: concentration at 4 h (ng/g)
Please state the figure in ng/g; there is no need to write the unit.

Input line: Entry CO[C@H]1C(=O)[C@]2(C)[C@@H](OC)C[C@H]3OC[C@@]3(OC(C)=O)[C@H]2[C@H](OC(=O)c2ccccc2)[C@]2(O)C[C@H](OC(=O)[C@H](O)[C@@H](NC(=O)OC(C)(C)C)c3ccccc3)C(C)=C1C2(C)C : reported concentration at 4 h = ?
Output line: 113
